Just for reference, patent US20260234163A1 is where these values come from.

Tested on: Nrf2
protocol-notes: Nrf2 Cellular Assay (pGL4.37[luc2P/ARE/Hygro] luciferase reporter in HepG2 cells)
Type: cell-based
conditions: ARE luciferase, 6 hours compound treatment
measure: EC50

IN: Please report the recorded EC50 for O=C(O)CC1c2ccc3c(c2)CN(CC3)C(=O)N2CCC(CCCCCn3nnc4cc1cnc43)CC2 (single isomer, unassigned) .
OUT: ≤ 10 µM

---

Listing: IC50 of selected molecules
assayed-system: Keap1-Nrf2 (Homo sapiens)
Construct: purchased Sino Biological 11981-H20B
protocol-notes: Keap1-Nrf2 Binding Inhibitory Activity Assay (fluorescence polarization, Keap1_FL + FITC-Nrf2 peptide)
conditions: Keap1-FL, 60 min room temperature

Solved cases (8 shown):
Cc1c2ccc3c1nnn3CCCCOc1ccc(cc1)S(=O)(=O)N1CCc3ccc(cc3C1)C2CC(=O)O (stereo not drawn) : ≤ 100 nM
Cc1c2ccc3c1nnn3CCCCCNC(=O)N1CCc3ccc(cc3C1)C2CC(=O)O (stereo not drawn) : 1000 to 10000 nM
Cc1c2ccc3c1nnn3CCCCCC1CCN(CC1)C(=O)N(C)Cc1cccc(c1)C2CC(=O)O (stereo not drawn) : 100 to 1000 nM
O=C(O)CC1c2ccc3c(c2)CN(CC3)C(=O)N2CCC(CCCCCn3nnc4cc1cnc43)CC2 (single isomer, unassigned) [Compound 54] : ≤ 100 nM
Cc1c2ccc3c1nnn3CCCCCC1CCC(CC1)C(=O)N1CCc3ccc(cc3C1)C2CC(=O)O (single isomer, unassigned) [Compound 50] : ≤ 100 nM
Cc1c2ccc3c1nnn3CCCOCC1CCN(CC1)C(=O)N1CCc3ccc(cc3C1)C2CC(=O)O (stereo not drawn) : ≤ 100 nM
O=C(O)CC1c2ccc3c(c2)CN(CC3)C(=O)N2CCC(CCCCn3nnc4cc1cnc43)CC2 (single isomer, unassigned) [Compound 52] : ≤ 100 nM
O=C(O)CC1c2ccc3c(c2)CN(CC3)C(=O)C2CCC(CCCCn3nnc4cc1cnc43)CC2 (stereo not drawn) : ≤ 100 nM

IN: Please report the recorded IC50 for Cc1ccc2cc1CN(C)C(=O)c1ccc(cc1)COCCCn1nnc3c(C)c(ccc31)C2CC(=O)O (single isomer, unassigned) [Compound 17] .
OUT: 1000 to 10000 nM

IN: Please report the recorded IC50 for Cc1c2ccc3c1nnn3CCCOCc1ccc(cc1)C(=O)N(C)Cc1cncc(c1)C2CC(=O)O (single isomer, unassigned) [Compound 20] .
OUT: 1000 to 10000 nM

---

Listing: IC50 of selected molecules
assayed-system: Keap1-Nrf2 (Homo sapiens, UniProt Q14145)
Construct: purchased Sino Biological 11981-H20B
protocol-notes: Keap1-Nrf2 Binding Inhibitory Activity Assay (fluorescence polarization, Keap1_FL + FITC-Nrf2 peptide)
conditions: Keap1-FL, 60 min room temperature

IN: Value wanted: IC50 (Keap1-Nrf2 (Homo sapiens, UniProt Q14145)) of entry Cc1c2ccc3c1nnn3CCCOCc1ccc(cc1)C(=O)N(C)Cc1ccnc(c1)C2CC(=O)O (stereo not shown) [Compound 21]
OUT: 100 to 1000 nM

IN: Value wanted: IC50 (Keap1-Nrf2 (Homo sapiens, UniProt Q14145)) of entry Cc1c2ccc3c1nnn3CCCOCc1ccc(cc1)C(=O)N(C)Cc1cncc(c1)C2CC(=O)O (single isomer, unassigned) [Compound 23]
OUT: 1000 to 10000 nM

IN: Value wanted: IC50 (Keap1-Nrf2 (Homo sapiens, UniProt Q14145)) of entry Cc1c2ccc3c1nnn3CCCCC1CCN(CC1)C(=O)N(C)Cc1cccc(c1)C2CC(=O)O (stereo not shown) [Compound 32]
OUT: 1000 to 10000 nM

IN: Value wanted: IC50 (Keap1-Nrf2 (Homo sapiens, UniProt Q14145)) of entry Cc1c2ccc3c1nnn3CCCCCC1CCN(CC1)C(=O)N1CCc3ccc(cc3C1)C2CC(=O)O (stereo not shown) [Compound 14]
OUT: ≤ 100 nM

IN: Value wanted: IC50 (Keap1-Nrf2 (Homo sapiens, UniProt Q14145)) of entry Cc1c2ccc3c1nnn3C/C=C\COC1CCN(CC1)C(=O)N1CCc3ccc(cc3C1)C2CC(=O)O (stereo not shown) [Compound 11]
OUT: ≤ 100 nM

IN: Value wanted: IC50 (Keap1-Nrf2 (Homo sapiens, UniProt Q14145)) of entry Cc1c2ccc3c1nnn3CCOCCOC1CCN(CC1)C(=O)c1ccc3ccc(cc3c1)C2CC(=O)O (single isomer, unassigned) [Compound 18]
OUT: 1000 to 10000 nM

IN: Value wanted: IC50 (Keap1-Nrf2 (Homo sapiens, UniProt Q14145)) of entry Cc1c2ccc3c1nnn3CCCCCN1CCC(CC1)C(=O)N1CCc3ccc(cc3C1)C2CC(=O)O (stereo not shown) [Compound 2]
OUT: 1000 to 10000 nM
